These measurements were taken from patent US10745416B2.

TGT: RET (R749T) (Homo sapiens, UniProt P07949, R749T)
Construct: purchased Reaction Biology Corporation (assay run at the CRO)
Sequence (P07949 29-1114 R749T): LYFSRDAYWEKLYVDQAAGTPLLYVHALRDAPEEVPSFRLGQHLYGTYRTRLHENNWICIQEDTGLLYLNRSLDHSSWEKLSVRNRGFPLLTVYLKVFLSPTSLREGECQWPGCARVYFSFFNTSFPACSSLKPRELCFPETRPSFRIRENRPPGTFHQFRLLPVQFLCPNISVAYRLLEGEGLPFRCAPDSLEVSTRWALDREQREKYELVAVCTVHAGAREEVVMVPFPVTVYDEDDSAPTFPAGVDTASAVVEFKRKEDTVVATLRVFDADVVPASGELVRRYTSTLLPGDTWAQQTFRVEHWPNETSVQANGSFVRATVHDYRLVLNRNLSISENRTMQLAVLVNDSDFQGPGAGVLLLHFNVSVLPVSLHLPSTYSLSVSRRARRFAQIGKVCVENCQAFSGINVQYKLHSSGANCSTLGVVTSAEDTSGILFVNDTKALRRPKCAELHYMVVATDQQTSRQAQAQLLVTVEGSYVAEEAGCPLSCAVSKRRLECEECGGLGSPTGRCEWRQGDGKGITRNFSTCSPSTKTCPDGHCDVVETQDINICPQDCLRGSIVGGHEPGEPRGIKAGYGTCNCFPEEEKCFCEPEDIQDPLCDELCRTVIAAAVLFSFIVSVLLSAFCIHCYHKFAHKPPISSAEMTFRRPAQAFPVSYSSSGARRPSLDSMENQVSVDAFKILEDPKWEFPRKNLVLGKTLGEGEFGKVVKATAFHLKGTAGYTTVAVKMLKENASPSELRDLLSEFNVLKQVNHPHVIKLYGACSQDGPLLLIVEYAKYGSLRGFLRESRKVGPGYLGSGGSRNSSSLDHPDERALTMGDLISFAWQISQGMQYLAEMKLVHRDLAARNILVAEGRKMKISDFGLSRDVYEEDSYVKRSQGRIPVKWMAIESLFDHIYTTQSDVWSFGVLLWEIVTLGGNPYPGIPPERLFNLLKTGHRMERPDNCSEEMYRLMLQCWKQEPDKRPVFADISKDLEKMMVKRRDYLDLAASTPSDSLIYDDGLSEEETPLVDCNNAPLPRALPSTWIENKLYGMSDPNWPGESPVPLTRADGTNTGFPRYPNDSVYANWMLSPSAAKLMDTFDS
TEST_DETAILS: Biochemical kinase assay (Reaction Biology, 33P ATP)
CONDITIONS_USED: 10 μM ATP
OBSERVED_PROPERTY: IC50 (nM)

# MOLECULE, IC50, nM
records = [
    ("C[C@H]1CNC(=O)c2cnn3cc4c(nc23)N(Cc2cc(F)cnc2O1)[C@@H]1CCC[C@@H]1O4 [Compound 5]", 0.32),
    ("C[C@H]1CNC(=O)c2cnn3cc4c(nc23)N(Cc2cc(F)ccc2O1)[C@@H]1CCC[C@@H]1O4 [Compound 1]", 0.271),
]
